Target: human kinase Mps-1 (Homo sapiens (Human), UniProt P33981)
Sequence (P33981 whole entry): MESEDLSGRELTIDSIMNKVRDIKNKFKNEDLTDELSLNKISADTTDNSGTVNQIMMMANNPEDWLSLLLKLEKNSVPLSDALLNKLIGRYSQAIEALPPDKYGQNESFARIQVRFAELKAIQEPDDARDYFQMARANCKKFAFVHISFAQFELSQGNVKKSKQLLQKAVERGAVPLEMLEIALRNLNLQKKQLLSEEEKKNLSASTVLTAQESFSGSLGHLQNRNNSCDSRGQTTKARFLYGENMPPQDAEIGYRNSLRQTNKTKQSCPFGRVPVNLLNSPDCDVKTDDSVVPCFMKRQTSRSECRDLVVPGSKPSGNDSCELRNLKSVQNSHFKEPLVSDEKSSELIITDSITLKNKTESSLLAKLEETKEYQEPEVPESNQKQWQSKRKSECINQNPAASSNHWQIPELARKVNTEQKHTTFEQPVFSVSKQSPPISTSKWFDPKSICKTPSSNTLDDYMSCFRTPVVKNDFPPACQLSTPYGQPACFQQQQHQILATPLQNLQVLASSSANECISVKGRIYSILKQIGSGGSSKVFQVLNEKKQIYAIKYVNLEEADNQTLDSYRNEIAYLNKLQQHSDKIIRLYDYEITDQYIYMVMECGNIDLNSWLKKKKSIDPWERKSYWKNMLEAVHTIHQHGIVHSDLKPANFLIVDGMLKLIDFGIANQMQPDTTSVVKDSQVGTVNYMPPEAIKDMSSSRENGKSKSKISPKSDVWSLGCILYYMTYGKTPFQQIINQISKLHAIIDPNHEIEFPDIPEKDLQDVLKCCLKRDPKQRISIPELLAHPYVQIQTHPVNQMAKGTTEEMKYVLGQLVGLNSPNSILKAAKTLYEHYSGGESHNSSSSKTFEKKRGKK
Experiment: Mps-1 kinase assay (TR-FRET)
Assay type: biochemical
Conditions: N-terminally GST-tagged human full length recombinant Mps-1; 10 μM ATP; 1 μM biotinylated peptide substrate; read-out: Mps1 IC50
pIC50: −log10 of the molar value.
readoutKind: pIC50

>  <molecule>
CNC(=O)c1ccc(-n2cnc3c(NCCC(F)(F)F)cc(Oc4cccc(O)c4)cc32)cc1C [Example 94]

>  <readoutKind>
pIC50

>  <observedResult>
8.51

$$$$
>  <molecule>
Cc1ccc(F)cc1Oc1cc(NCC2CCOCC2)c2ncn(-c3ccc(C(=O)NC4CC4)c(C)c3)c2c1 [Example 16]

>  <readoutKind>
pIC50

>  <observedResult>
9.22

$$$$
>  <molecule>
Cc1cc(-n2cnc3c(NCCC(F)(F)F)cc(Oc4ccc(-n5cncn5)cc4)cc32)ccc1C(=O)NC1CC1 [Example 78]

>  <readoutKind>
pIC50

>  <observedResult>
7.96

$$$$
>  <molecule>
Cc1cc(-n2cnc3c(NCCC(F)(F)F)cc(Oc4cccc(OC(F)(F)F)c4)cc32)ccc1C(=O)NC1CC1 [Example 59]

>  <readoutKind>
pIC50

>  <observedResult>
7.92

$$$$
>  <molecule>
Cc1cc(-n2cnc3c(NCCC(F)(F)F)cc(Oc4ccc(-c5ncco5)cc4)cc32)ccc1C(=O)NC1CC1 [Example 75]

>  <readoutKind>
pIC50

>  <observedResult>
7.66

$$$$
>  <molecule>
CNC(=O)c1ccc(-n2cnc3c(NCCC(F)(F)F)cc(Oc4ccc(OC)c(F)c4)cc32)cc1C [Example 35]

>  <readoutKind>
pIC50

>  <observedResult>
8.41

$$$$
>  <molecule>
COc1ccc(C(C)c2cc(NCCC(F)(F)F)c3ncn(-c4ccc(C(=O)NC5CC5)c(C)c4)c3c2)cc1F (racemic) [Example 105]

>  <readoutKind>
pIC50

>  <observedResult>
8.54

$$$$
>  <molecule>
CNC(=O)c1ccc(-n2cnc3c(NCC4CCOCC4)cc(Oc4cccc(F)c4F)cc32)cc1C [Example 84]

>  <readoutKind>
pIC50

>  <observedResult>
8.47

$$$$
>  <molecule>
COc1ccccc1Oc1cc(NCCC(F)(F)F)c2ncn(-c3ccc(C(=O)NC4CC4)c(C)c3)c2c1 [Example 41]

>  <readoutKind>
pIC50

>  <observedResult>
8.00

$$$$
>  <molecule>
CCNC(=O)c1ccc(-n2cnc3c(NCCC(F)(F)F)cc(Oc4cccc(O)c4)cc32)cc1C [Example 95]

>  <readoutKind>
pIC50

>  <observedResult>
8.25

$$$$
>  <molecule>
CCNC(=O)c1ccc(-n2cnc3c(NCCC(F)(F)F)cc(Oc4ccc(O)c(F)c4)cc32)cc1C [Example 100]

>  <readoutKind>
pIC50

>  <observedResult>
8.47

$$$$
>  <molecule>
Cc1cc(-n2cnc3c(NCC4CCOCC4)cc(Oc4ccc(O)c(F)c4)cc32)ccc1C(=O)NC1CC1 [Example 114A]

>  <readoutKind>
pIC50

>  <observedResult>
9.15

$$$$
>  <molecule>
Cc1ccc(F)cc1Nc1cc(NCC2CCOCC2)c2ncn(-c3ccc(C(=O)NC4CC4)c(C)c3)c2c1 [Example 19]

>  <readoutKind>
pIC50

>  <observedResult>
8.92

$$$$
>  <molecule>
CNC(=O)c1ccc(-n2cnc3c(NCC4CCOCC4)cc(Oc4ccc(OC)cc4F)cc32)cc1C [Example 86]

>  <readoutKind>
pIC50

>  <observedResult>
8.15

$$$$
>  <molecule>
CNC(=O)c1ccc(-n2cnc3c(NCC4CCOCC4)cc(Oc4ccc(O)cc4F)cc32)cc1C [Example 115A]

>  <readoutKind>
pIC50

>  <observedResult>
8.14

$$$$
>  <molecule>
CCNC(=O)c1ccc(-n2cnc3c(NCC4CCOCC4)cc(Oc4cccc(F)c4F)cc32)cc1C [Example 85]

>  <readoutKind>
pIC50

>  <observedResult>
8.48

$$$$
>  <molecule>
Cc1cc(-n2cnc3c(NCC4CCOCC4)cc(-c4ccccc4CO)cc32)ccc1C(=O)NC1CC1 [Example 20]

>  <readoutKind>
pIC50

>  <observedResult>
8.82

$$$$
>  <molecule>
CNC(=O)c1ccc(-n2cnc3c(NCCC(F)(F)F)cc(Oc4ccccc4O)cc32)cc1C [Example 56]

>  <readoutKind>
pIC50

>  <observedResult>
9.52

$$$$
>  <molecule>
COc1cccc(Oc2cc(NCCC(F)(F)F)c3ncn(-c4ccc(C(=O)NC5CC5)c(C)c4)c3c2)c1 [Example 70]

>  <readoutKind>
pIC50

>  <observedResult>
8.70

$$$$
>  <molecule>
CNC(=O)c1ccc(-n2cnc3c(NCCC(F)(F)F)cc(-c4ccnn4C)cc32)cc1C [Example 32]

>  <readoutKind>
pIC50

>  <observedResult>
7.69

$$$$
>  <molecule>
COc1ccc(C(=O)c2cc(NCCC(F)(F)F)c3ncn(-c4ccc(C(=O)NC5CC5)c(C)c4)c3c2)cc1F [Example 101]

>  <readoutKind>
pIC50

>  <observedResult>
8.19

$$$$
>  <molecule>
CCNC(=O)c1ccc(-n2cnc3c(NCC4CCOCC4)cc(Oc4ccc(OC)cc4F)cc32)cc1C [Example 87]

>  <readoutKind>
pIC50

>  <observedResult>
7.94

$$$$
>  <molecule>
COc1ccc(Oc2cc(NCC3CCOCC3)c3ncn(-c4ccc(C(=O)NC5CC5)c(C)c4)c3c2)cc1SC [Example 114B]

>  <readoutKind>
pIC50

>  <observedResult>
8.17

$$$$
>  <molecule>
Cc1cc(-n2cnc3c(NCCC(F)(F)F)cc(Oc4cccc(C(=O)NC5CC5)c4)cc32)ccc1C(=O)NC1CC1 [Example 79]

>  <readoutKind>
pIC50

>  <observedResult>
8.41

$$$$
>  <molecule>
Cc1cc(-n2cnc3c(NCCC(F)(F)F)cc(C(=O)c4ccc(O)c(F)c4)cc32)ccc1C(=O)NC1CC1 [Example 108]

>  <readoutKind>
pIC50

>  <observedResult>
7.77

$$$$
>  <molecule>
Cc1cc(-n2cnc3c(NCCC(F)(F)F)cc(Oc4ccc(S(C)(=O)=O)cc4)cc32)ccc1C(=O)NC1CC1 [Example 74]

>  <readoutKind>
pIC50

>  <observedResult>
8.19

$$$$
>  <molecule>
Cc1cc(F)cc(Oc2cc(NCC3CCOCC3)c3ncn(-c4ccc(C(=O)NC5CC5)c(C)c4)c3c2)c1 [Example 15]

>  <readoutKind>
pIC50

>  <observedResult>
9.22

$$$$
>  <molecule>
Cc1cc(-n2cnc3c(NCCC(F)(F)F)cc(-c4ccncc4)cc32)ccc1C(=O)NC1CC1 [Example 2]

>  <readoutKind>
pIC50

>  <observedResult>
9.70

$$$$
>  <molecule>
Cc1cc(-n2cnc3c(NCCC(F)(F)F)cc(Oc4cccc(O)c4)cc32)ccc1C(=O)NC1CC1 [Example 111]

>  <readoutKind>
pIC50

>  <observedResult>
9.22

$$$$
>  <molecule>
Cc1cc(-n2cnc3c(NCCC(F)(F)F)cc(Oc4cccc(OC(F)F)c4)cc32)ccc1C(=O)NC1CC1 [Example 62]

>  <readoutKind>
pIC50

>  <observedResult>
8.49

$$$$
